Value source: PubChem BioAssay AID330

For each of the compounds below, state its T/C.
# Test system: P388 leukemia ip, CD2F1 mice, survival T/C
# method notes: NCI In Vivo Anticancer Drug Screen. Data for tumor model P388 Leukemia (intraperitoneal) in CD2F1 (CDF1) mice
# condition notes: endpoint: median survival time; dose: 25.0 mg/kg/injection; schedule: Q01DX009 (ip); vehicle: water; higher = longer survival
Inconclusive results and toxic doses are left out.

compound	T/C
COc1cc(NC(C)CCCN)c2nc(C)ccc2c1Oc1ccc(F)cc1 (stereo not given)	92 % of control
O=[N+]([O-])c1cccn2nc(C3OC(CO)C(O)C3O)nc12 (stereo not given)	113 % of control
CC1=CC(C)(O)C=C(C)C1=O	100 % of control

For every item below, please supply its T/C.
1. Oc1ccc[n+](CCCCCC[n+]2cccc(O)c2)c1
2. Cn1cnc([N+](=O)[O-])c1[Se]c1nc(N)nc2nc[nH]c12

["105 % of control", "106 % of control"]

----------
# System: P388 leukemia ip, CD2F1 mice, survival T/C
# method notes: NCI In Vivo Anticancer Drug Screen. Data for tumor model P388 Leukemia (intraperitoneal) in CD2F1 (CDF1) mice
# condition notes: endpoint: median survival time; dose: 50.0 mg/kg/injection; schedule: Q01DX009 (ip); vehicle: Klucel (hydroxypropylcellulose) (HPC); higher = longer survival
Inconclusive results and toxic doses are left out.
assay metric: T/C

Known T/C results, listed for orientation:
compound	assay target	assay metric	reported measurement
CC(C)(C)c1ccc(C(=O)Nc2ccc(Cl)cc2Oc2ccccc2)cc1	P388 leukemia ip, CD2F1 mice, survival T/C	T/C	93 % of control
Cc1ccnc(NS(=O)(=O)c2ccc(N=Nc3c(O)n(-c4ccccc4)n(-c4ccccc4)c3=O)cc2)n1	P388 leukemia ip, CD2F1 mice, survival T/C	T/C	86 % of control
O=C1/C(=C/c2ccc(/C=C3\CCc4ccccc4C3=O)cc2)CCc2ccccc21	P388 leukemia ip, CD2F1 mice, survival T/C	T/C	102 % of control

For every item below, please supply its T/C.
1. c1ccc(N=C2SCCCS2)cc1
2. COC(=O)C(CCSC)NC(=O)C(Cc1c[nH]c2ccccc12)NC(=O)OC(C)(C)C (stereo unspecified)
3. C#CCSc1nc2ccccc2s1

1: 103 % of control; 2: 86 % of control; 3: 98 % of control

----------
# Tested on: P388 leukemia ip, CD2F1 mice, survival T/C
# method notes: NCI In Vivo Anticancer Drug Screen. Data for tumor model P388 Leukemia (intraperitoneal) in CD2F1 (CDF1) mice
# condition notes: endpoint: median survival time; dose: 5.0 mg/kg/injection; schedule: Q01DX009 (ip); vehicle: saline; higher = longer survival
Inconclusive results and toxic doses are left out.
assay metric: T/C

Known T/C results, listed for orientation:
compound	reported measurement
O=C(Nc1ccc(C2=NCCCN2)cc1)c1ccc(NC(=O)c2ccc(C3=NCCCN3)cc2)cc1	200 % of control
C=CCN(CC=C)P(=O)(N1CC1C)N1CC1C (centres undefined)	97 % of control
C/C=C(\C)c1cc(=O)c2c(C)cc3c(c2o1)C(=O)c1c(O)c(C2CC(C)(N(C)C)C(O)C(C)O2)cc(C2CC(N(C)C)C(O)C(C)O2)c1C3=O (centres undefined)	94 % of control

Moving on to the next compound.
For Nc1cccnc1N , what is its reported T/C? 98 % of control

----------
# Test system: P388 leukemia ip, CD2F1 mice, survival T/C
# method notes: NCI In Vivo Anticancer Drug Screen. Data for tumor model P388 Leukemia (intraperitoneal) in CD2F1 (CDF1) mice
# condition notes: endpoint: median survival time; dose: 100.0 mg/kg/injection; schedule: Q04DX003 (ip); vehicle: saline with Tween-80; higher = longer survival
# Protocol: The antitumor activity of compounds was measured in mice bearing transplantable tumors. Survival or tumor size were measured and the results are expressed as the measurement made in the treated group (T) divided by the measurement made in the vehicle treated control group (C). The tumor model used in this assay is P388 Leukemia (intraperitoneal) in CD2F1 (CDF1) mice
Inconclusive results and toxic doses are left out.
assay metric: T/C

Known T/C results, listed for orientation:
compound	assay metric	reported measurement
O=C(O)C1CCC(=O)N1C(=O)OCc1ccccc1 (configuration not stated)	T/C	95 % of control
COC(=O)C1CC(=O)N(C)c2sc(C)c(C)c2C1=O (configuration not stated)	T/C	97 % of control
O=[N+]([O-])c1ccc(N/N=C\c2c(Cl)n(-c3ccccc3)c3ccccc23)cc1	T/C	93 % of control
[NH-]C(CC(N)=O)C(=O)O.[NH-]C(CC(N)=O)C(=O)O.[Pd+2] (configuration not stated)	T/C	107 % of control
COC(=O)CCC(C)(c1ccc(O)cc1)c1ccc(O)cc1	T/C	104 % of control

For every item below, please supply its T/C.
1. CC(C)=C/C(C)=N/NC(N)=O
2. Cc1cc2nc(CC(O)(C(F)(F)F)C(F)(F)F)oc2cc1C
3. Cc1ccc(SNc2ccccc2)cc1
4. O=C1c2cccnc2C(=O)N1Cc1ccccc1
5. C=CCNc1ncnc2c1cnn2C
6. CN(C)c1ccc(/C=C2\C=Cc3ccccc32)cc1
7. C[As](C)SCCC(CCCCC(=O)O)S[As](C)C (configuration not stated)

1: 94 % of control; 2: 95 % of control; 3: 96 % of control; 4: 95 % of control; 5: 104 % of control; 6: 109 % of control; 7: 108 % of control

----------
# Test system: P388 leukemia ip, CD2F1 mice, survival T/C
# method notes: NCI In Vivo Anticancer Drug Screen. Data for tumor model P388 Leukemia (intraperitoneal) in CD2F1 (CDF1) mice
# condition notes: endpoint: median survival time; dose: 400.0 mg/kg/injection; schedule: Q04DX003 (ip); vehicle: Klucel (hydroxypropylcellulose) (HPC); higher = longer survival
Toxic doses and inconclusive results are not listed.
assay metric: T/C

Known T/C results, listed for orientation:
smiles repr	assay target	T/C
Clc1ccc(CN2COc3c(ccc4cccnc34)C2)cc1	P388 leukemia ip, CD2F1 mice, survival T/C	93 % of control
CCOP(O)(=S)OCC.[Yb]	P388 leukemia ip, CD2F1 mice, survival T/C	90 % of control

Moving on to the next compound.
For O=C1/C(=C/N2CCN(c3ccccc3)CC2)Cc2c(F)cccc21 , what is its reported T/C? 100 % of control

----------
For each of the compounds below, state its T/C.
# Tested on: P388 leukemia ip, CD2F1 mice, survival T/C
# method notes: NCI In Vivo Anticancer Drug Screen. Data for tumor model P388 Leukemia (intraperitoneal) in CD2F1 (CDF1) mice
# condition notes: endpoint: median survival time; dose: 25.0 mg/kg/injection; schedule: Q01DX005 (ip); vehicle: saline; higher = longer survival
Toxic doses and inconclusive results are not listed.

Known T/C results, listed for orientation:
compound	assay target	T/C
CCC(CNc1cc(OC)cc2cccnc12)NC1CCCCC1 (configuration not stated)	P388 leukemia ip, CD2F1 mice, survival T/C	99 % of control
Cc1cc(N=Nc2ccc(NC(=O)c3ccc(N)cc3)cc2C)ccc1N=Nc1ccc2c(O)c(N=Nc3ccc(S(=O)(=O)O)cc3)c(S(=O)(=O)O)cc2c1	P388 leukemia ip, CD2F1 mice, survival T/C	105 % of control
COc1cccc(Oc2cccc[n+]2CC(C)=O)c1	P388 leukemia ip, CD2F1 mice, survival T/C	98 % of control

For every item below, please supply its T/C.
1. CC(=O)C1OC1c1ccccn1 (configuration not stated)
2. CC(C(N)C(=O)NC(C(=O)O)C1OC(n2ccc(=O)[nH]c2=O)C(O)C1O)C(O)c1ccc(O)cn1 (configuration not stated)
3. CCCCN(CCCC)CC(C)(O)CNc1cc(OC)cc2cccnc12 (configuration not stated)
4. CCCCN(CCCC)C(=N)c1ccc(OC)c(OC)c1
5. [Cl][Mn][Cl].[NH-]NP(=S)(N[NH-])Oc1ccccc1.[NH-]NP(=S)(N[NH-])Oc1ccccc1
6. NCC(c1ccccc1)C1CCCCC1 (configuration not stated)
7. CC1(C)NC(=O)[C@]2(C[C@@H](O)C=C2CO)O1

102 % of control
100 % of control
101 % of control
100 % of control
100 % of control
94 % of control
94 % of control

For every item below, please supply its T/C.
1. N=c1ccn(O)cc1
2. CC1C2CCC3C4CC=C5CC(N(C)C)CCC5(C)C4CCC32CN1C (configuration not stated)

["102 % of control", "94 % of control"]

----------
# System: P388 leukemia ip, CD2F1 mice, survival T/C
# method notes: NCI In Vivo Anticancer Drug Screen. Data for tumor model P388 Leukemia (intraperitoneal) in CD2F1 (CDF1) mice
# condition notes: endpoint: median survival time; dose: 25.0 mg/kg/injection; schedule: Q01DX005 (ip); vehicle: saline with Tween-80; higher = longer survival
Toxic doses and inconclusive results are not listed.
For each of the molecules below, state its T/C.

Known T/C results, listed for orientation:
molecule	T/C
C=C(c1ccc2nc(NC(=O)OC)[nH]c2c1)c1cccs1	108 % of control
O=CC(=C\c1cccs1)/C(C=O)=C\c1cccs1	108 % of control
O=C1CN(Cc2ccccc2)CC(=O)N2Cc3ccccc3CN12	105 % of control
CCC/C(=N\NC(=S)N(C)C)c1ccccn1	107 % of control
Cc1ccc(N2CC(=O)N3CCCN3C(=O)C2)cc1	102 % of control
S=C(NNc1nnc(-c2ccccc2)c(-c2ccccc2)n1)Nc1ccccc1	97 % of control

For every item below, please supply its T/C.
1. COc1cc(NCCCCCCNC(C)C)c2ncccc2c1
2. COc1ccc(C(C)c2cc(N=O)c(OC)cc2O)cc1 (configuration not stated)
3. C1=Nc2ccccc2/C1=C/c1c[nH]c2ccccc12
4. CCN(C(=S)NNC(=S)N/N=C(\C)c1ccccn1)c1ccccc1
5. CCCCN1CCC(CNc2ccnc3cc(Cl)ccc23)C1 (configuration not stated)
6. CCc1nc(N)nc(N)c1-c1ccc(N)cc1

1. 95 % of control
2. 94 % of control
3. 110 % of control
4. 109 % of control
5. 90 % of control
6. 100 % of control
